# TEST_METHOD_NOTES: Volume of distribution at steady state in Sprague-Dawley rat at 2 mg/kg, iv and 5 mg/kg, po
# Assay type: ADME, organism-based
# PARTICULARS: in vivo, read-out: Vdss
MEASURED_PROPERTY: log10 of Vd (log10 of the value in L/kg)

| MOL | log10 of Vd |
| --- | --- |
| CCOC(=O)N1CCN(C(=O)[C@H](CCC(=O)O)NC(=O)c2cccc(-c3ccccc3)n2)CC1 | 1.19 |
| CCCCCOC(=O)N1CCN(C(=O)[C@H](CCC(=O)O)NC(=O)c2cc(CCCNCC(C)C)cc(-c3ccccc3)n2)CC1 | 0.75 |
| CCCCCOC(=O)N1CCN(C(=O)[C@H](CCC(=O)O)NC(=O)c2cc(CCCN(C)C)cc(-c3ccccc3)n2)CC1 | 0.51 |
| CCCCCOC(=O)N1CCN(C(=O)[C@H](CCC(=O)O)NC(=O)c2cc(N3CCC(N)CC3)cc(-c3ccccc3)n2)CC1 | -0.42 |
| CCCCCOC(=O)N1CCN(C(=O)[C@H](CCC(=O)O)NC(=O)c2cc(OCCOC)cc(-c3ccccc3)n2)CC1 | 0.36 |
| CCCCCOC(=O)N1CCN(C(=O)[C@H](CCC(=O)O)NC(=O)c2cc(C(=O)N3CCC(N(C)C)CC3)cc(-c3ccccc3)n2)CC1 | -0.11 |
| CCCCCOC(=O)N1CCN(C(=O)[C@H](CCC(=O)O)NC(=O)c2cc(O)cc(-c3ccccc3)n2)CC1 | 1.46 |
